Target: Cytochrome P450 3A4 (Homo sapiens) (UniProt P08684)
Sequence (P08684 whole entry, looked up): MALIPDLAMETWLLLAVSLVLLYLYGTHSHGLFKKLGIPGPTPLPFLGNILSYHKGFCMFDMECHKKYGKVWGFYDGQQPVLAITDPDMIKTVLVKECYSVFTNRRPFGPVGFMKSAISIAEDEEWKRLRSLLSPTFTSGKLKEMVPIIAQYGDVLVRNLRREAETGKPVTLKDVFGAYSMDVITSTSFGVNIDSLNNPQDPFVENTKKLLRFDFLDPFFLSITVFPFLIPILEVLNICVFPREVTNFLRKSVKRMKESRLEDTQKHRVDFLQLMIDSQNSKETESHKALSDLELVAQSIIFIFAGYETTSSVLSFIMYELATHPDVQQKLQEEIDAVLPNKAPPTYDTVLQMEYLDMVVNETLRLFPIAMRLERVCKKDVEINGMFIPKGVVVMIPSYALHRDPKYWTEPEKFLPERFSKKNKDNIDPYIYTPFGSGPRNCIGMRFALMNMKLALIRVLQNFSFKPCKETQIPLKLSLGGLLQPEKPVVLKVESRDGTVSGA
Assay: Cytochrome panel assay with activity outcomes
Conditions: recombinant CYP, pro-luciferin dealkylation, luminescence, p450-cyp3a4; series mostly up to 57.1 µM
Hit rate of the full screen: of about 16,000 compounds, about 5,100 (32%) were called active. Not shown: some 25% with an inconclusive outcome. Calls follow the shape of the dose curve; as a rule, active = well fitted curve in the direction sought with a large enough effect; inconclusive = small, poorly fitted or top-dose-only effect, or effect the other way; inactive = no such curve, though single readings can be large or run the other way. Some of the results follow.
Outcome field: choose from Yes (active), No (inactive)

Worked set:
compound	assigned class
C=C(C)[C@H]1CC=C(C)/C(=N/NC(=O)CNc2ccccc2OC)C1	Yes
Cc1cccc(C(=O)Nc2nnc(-c3ccc(C(C)(C)C)cc3)s2)c1	No
CCOC(=O)c1[nH]c2cc(OC)c(OC)cc2c1NC(=O)c1ccc2c(c1)OCO2	Yes
CCNC(=O)c1c(NC(C)=O)sc2c1CCCC2	No
CC(C)CC(C(=O)NCC1CCCO1)N(C(=O)Cn1nnc(-c2ccc(F)cc2)n1)c1cccc(C(F)(F)F)c1 (stereo not given)	Yes

Per the records of this test, what outcome belongs to `CCOc1cc(/C=C2/NC(=O)N(CC(=O)Nc3cccc(C)c3)C2=O)ccc1OC` ?
Yes

Per the records of this test, what outcome belongs to `CCOC(=O)c1[nH]c2ccc(OC)cc2c1NC(=O)c1ccc2c(c1)OCO2` ?
Yes

Per the records of this test, what outcome belongs to CC(C)CC(C(=O)NCC1CCCO1)N(C(=O)Cn1nnc(-c2ccc(F)cc2)n1)c1ccccc1F (stereo not given) ?
Yes

Per the records of this test, what outcome belongs to `CC(=O)Nc1sc2c(c1C(N)=O)CCCC2` ?
No

Per the records of this test, what outcome belongs to `CN(C(=O)Cn1nnc(-c2cccc(C(F)(F)F)c2)n1)C1CCCCC1` ?
No
